This collection of values is drawn from ChEMBL document CHEMBL2016493.

Test system: Trichoderma viride
assay summary: Antifungal activity against Trichoderma viride MTCC 1107 at 20 uM/ml after 48 hrs by paper disc diffusion method
Assay type: functional
run parameters: MTCC 1107, 48 h, read-out: IZ
Each record here notes measured zone of inhibition at 20 µM.
Please give a number only; it is taken to be in mm.

>>> endpoint_value("OC(Cn1cncn1)(Cn1cncn1)c1ccc(F)cc1F")
21
>>> endpoint_value("COc1cc(/C=C/C(=O)C2=C(/C=C/c3ccc(O)c(OC)c3)NC(=S)NC2c2ccc(Cl)cc2)ccc1O (stereo not drawn)")
18
>>> endpoint_value("COc1cc(/C=C/C(=O)C2=C(/C=C/c3ccc(O)c(OC)c3)NC(=S)NC2c2ccc(O)cc2)ccc1O (stereo not drawn)")
11
>>> endpoint_value("COc1cc(/C=C/C(=O)C2=C(/C=C/c3ccc(O)c(OC)c3)NC(=S)NC2c2ccccc2)ccc1O (stereo not drawn)")
18
>>> endpoint_value("COc1ccc(C2NC(=S)NC(/C=C/c3ccc(O)c(OC)c3)=C2C(=O)/C=C/c2ccc(O)c(OC)c2)cc1 (stereo not drawn)")
17

Task: API: value(readout=zone of inhibition at 20 µM, system=Trichoderma viride) for record COc1cc(/C=C/C(=O)C2=C(/C=C/c3ccc(O)c(OC)c3)NC(=O)NC2c2ccc([N+](=O)[O-])cc2)ccc1O (stereo not drawn)
Output: 17

Task: Notebook entry, Trichoderma viride assay: zone of inhibition at 20 µM of COc1ccc(C2NC(=O)NC(/C=C/c3ccc(O)c(OC)c3)=C2C(=O)/C=C/c2ccc(O)c(OC)c2)cc1 (stereo not drawn) = ?
Output: 14

Task: For Trichoderma viride, provide zone of inhibition at 20 µM of COc1cc(/C=C/C(=O)C2=C(/C=C/c3ccc(O)c(OC)c3)NC(=O)NC2c2ccc(O)cc2)ccc1O (stereo not drawn) please.
Output: 9

====

HepG2 measurements of IC50, listed per entry.
I only need the number, in uM/ml, no unit after it.

Example compounds with recorded IC50:
>>> endpoint_value("COc1cc(/C=C/C(=O)C2=C(/C=C/c3ccc(O)c(OC)c3)NC(=O)NC2c2ccc(O)cc2)ccc1O (centres undefined)")
25
>>> endpoint_value("COc1cc(/C=C/C(=O)C2=C(/C=C/c3ccc(O)c(OC)c3)NC(=O)NC2c2ccc(C)cc2)ccc1O (centres undefined)")
50
>>> endpoint_value("COc1ccc(C2NC(=S)NC(/C=C/c3ccc(O)c(OC)c3)=C2C(=O)/C=C/c2ccc(O)c(OC)c2)cc1 (centres undefined)")
100

Please look at the following compound next.
Task: # IC50 lookup, item COc1cc(/C=C/C(=O)C2=C(/C=C/c3ccc(O)c(OC)c3)NC(=O)NC2c2ccccc2O)ccc1O (centres undefined)
Output: 100

====

System: Aspergillus niger
assay summary: Antifungal activity against Aspergillus niger MTCC 1108 at 80 uM/ml after 48 hrs by paper disc diffusion method
Assay type: functional
run parameters: MTCC 1108, 48 h, read-out: IZ
test readout: zone of inhibition at 80 µM (mm)
Answer in mm, number only, no unit symbol.

Consider the worked cases shown below.
>>> endpoint_value("COc1cc(/C=C/C(=O)C2=C(/C=C/c3ccc(O)c(OC)c3)NC(=S)NC2c2ccc(O)c(OC)c2)ccc1O (stereo unspecified)")
12
>>> endpoint_value("COc1ccc(C2NC(=S)NC(/C=C/c3ccc(O)c(OC)c3)=C2C(=O)/C=C/c2ccc(O)c(OC)c2)cc1 (stereo unspecified)")
9
>>> endpoint_value("COc1cc(/C=C/C(=O)C2=C(/C=C/c3ccc(O)c(OC)c3)NC(=O)NC2c2ccc(O)cc2)ccc1O (stereo unspecified)")
9
>>> endpoint_value("COc1cc(/C=C/C(=O)C2=C(/C=C/c3ccc(O)c(OC)c3)NC(=S)NC2c2ccc([N+](=O)[O-])cc2)ccc1O (stereo unspecified)")
11

Task: Form field: reported zone of inhibition at 80 µM of COc1cc(/C=C/C(=O)C2=C(/C=C/c3ccc(O)c(OC)c3)NC(=S)NC2c2ccc(O)cc2)ccc1O (stereo unspecified)
Output: 11

Task: For the compound shown here, COc1cc(/C=C/C(=O)C2=C(/C=C/c3ccc(O)c(OC)c3)NC(=O)NC2c2ccccc2O)ccc1O (stereo unspecified) , give the reported zone of inhibition at 80 µM.
Output: 11
